Biological target: T1, human CD47 (human, UniProt Q08722 19-139)
T1 construct: extracellular domain; also called CD47 ECD
T1 sequence (Q08722 19-139 limits assumed): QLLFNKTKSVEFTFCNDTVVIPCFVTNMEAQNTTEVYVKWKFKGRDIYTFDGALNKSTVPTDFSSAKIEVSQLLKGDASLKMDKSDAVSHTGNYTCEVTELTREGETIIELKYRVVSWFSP
Assay: SPR, 25 C, 1:1 Langmuir fit
// reported log10 of Kd per item
// do not treat as linear: log10 of Kd, unit nM

Example cases with answers are listed next.
SIRP-α D1 variant polypeptide of SEQ ID NO: 67 (receptor, engineered SIRP-α D1 domain) EEELQVIQPDKSVSVAAGESAILHCTITSLFPVGPIQWFRGAGPARELIYNQREGPFPRVTTVSETTKRENMDFSISISNITPADAGTYYCVKFRKGSPDTEFKSGAGTELSVRAKPS : -0.69
SIRP-α D1 variant polypeptide of SEQ ID NO: 65 (receptor, engineered SIRP-α D1 domain) EEELQVIQPDKSVSVAAGESAILHCTVTSLFPVGPIQWFRGAGPARELIYNQREGPFPRVTTVSESTKRENMDFSISISNITPADAGTYYCVKFRKGSPDTEFKSGAGTELSVRAKPS : -0.10
SIRP-α D1 variant polypeptide of SEQ ID NO: 62 (receptor, engineered SIRP-α D1 domain) EEELQIIQPDKSVSVAAGESAILHCTITSLFPVGPIQWFRGAGPARVLIYNQRQGPFPRVTTVSESTKRENMDFSISISNITPADAGTYYCIKFRKGSPDTEFKSGAGTELSVRAKPS : -0.89
SIRP-α D1 variant polypeptide of SEQ ID NO: 69 (receptor, engineered SIRP-α D1 domain) EEELQVIQPDKSVSVAAGESAILHCTITSLIPVGPIQWFRGAGPARELIYNQREGPFPRVTTVSESTKRENMDFSISISNITPADAGTYYCVKFRKGSPDTEFKSGAGTELSVRAKPS : 0.38
SIRP-α D1 variant polypeptide of SEQ ID NO: 72 (receptor, engineered SIRP-α D1 domain) EEELQIIQPDKSVLVAAGETATLRCTITSLFPVGPIQWFRGAGPGRELIYNQREGPFPRVTTVSDLTKRNNMDFSIRIGNITPADAGTYYCVKFRKGSPDDVEFKSGAGTELSVRAKPS : -0.13

Prompt: Give a short answer stating reported log10 of Kd for SIRP-α D1 variant polypeptide of SEQ ID NO: 61 (receptor, engineered SIRP-α D1 domain) EEELQIIQPDKSVSVAAGESAILHCTITSLFPVGPIQWFRGAGPARVLIYNQRQGHFPRVTTVSETTKRENMDFSISISNITPADAGTYYCIKFRKGSPDTEFKSGAGTELSVRAKPS .
Completion: -0.42

Reference source: patent US20200239543A1
